Assay: protein stability index of a GFP-peptide fusion (yeast GPS) (PSI 1-4); higher = more stable; sorted into four equal gates, so the index is relative within each strain
Conditions: pdr5∆
assay-readout: protein stability index

sequence_string="SPYNADFDGDEMNLHVP [RPO21]" assay_readout="protein stability index" reported_measurement=3.27
sequence_string="LAKAVAATIGANFIFSP [RPT4]" assay_readout="protein stability index" reported_measurement=1.99
sequence_string="LYYPQKPLGTTRAMEYL [RPB2]" assay_readout="protein stability index" reported_measurement=2.9
sequence_string="KSTASTAAANTEKLSNG [YOR098C/NUP1]" assay_readout="protein stability index" reported_measurement=3.11
sequence_string="TLLIAIRGSNRDLKPSN [YML103C/NUP188]" assay_readout="protein stability index" reported_measurement=2.41
sequence_string="AFETHYRRLFAKRLIHG [CDC53]" assay_readout="protein stability index" reported_measurement=2.54
sequence_string="GNIISSDKTIVPTSIQT [SIN4]" assay_readout="protein stability index" reported_measurement=2.61
sequence_string="PSRQFDHYESNQLVAKL [SRB8]" assay_readout="protein stability index" reported_measurement=2.85
sequence_string="LVYDVKGRFAVHRITDE [RPS4A]" assay_readout="protein stability index" reported_measurement=3.08
sequence_string="TSDLLGSHLSETEFPPF [ECM29]" assay_readout="protein stability index" reported_measurement=3.17
sequence_string="PVGSYEREQCRAGGAAA [PRE7]" assay_readout="protein stability index" reported_measurement=2.98

====

Experiment: protein stability index of a GFP-peptide fusion (yeast GPS) (PSI 1-4); higher = more stable; sorted into four equal gates, so the index is relative within each strain
Conditions: ubr1∆
protein stability index listing for selected sequences.
assay-readout: protein stability index

sequence_string="AELNLPTVDEQRQYKVQ [SNF11]" reported_measurement=3.31
sequence_string="QIMQLKKICNHPFVFEE [SNF2]" reported_measurement=2.55
sequence_string="MFTQIYLERIELSFYIL [YML103C/NUP188]" reported_measurement=1.75
sequence_string="VAESFTDEADSSMTEAS [SNF2]" reported_measurement=3.14
sequence_string="NFNSSAPIADDNHSGDA [DSN1]" reported_measurement=2.68

====

protein stability index listing for selected sequences.
Assay: protein stability index of a GFP-peptide fusion (yeast GPS) (PSI 1-4); higher = more stable; sorted into four equal gates, so the index is relative within each strain
Details: doa10∆
assay-readout: protein stability index

sequence_string="EFQPSGNVTELYGTAIG [PRE5]" reported_measurement=2.15
sequence_string="SLDTLELESITESITHD [NUT1]" reported_measurement=2.57
sequence_string="EALVERRRAFKRSQKKH [RPB4]" reported_measurement=3.12
sequence_string="LEKCEAEFKKRKIEAET [YCS4]" reported_measurement=2.79
sequence_string="NLAPKLRNVFLGKCSRI [GRR1]" reported_measurement=2.7
sequence_string="EKTFLHLPCTIEAEEAE [RPN8]" reported_measurement=1.56

====

Assay: protein stability index of a GFP-peptide fusion (yeast GPS) (PSI 1-4); higher = more stable; sorted into four equal gates, so the index is relative within each strain
Settings: doa10∆
Binary classification by protein stability index, with 2 as an inclusive lower bound for label 1; all other cases are label 0.

sequence_string="SKFHFSWNESEDTLSGY [PRP28]" answer_label="label 1"
sequence_string="ELYEVDVLKVNTLVRPN [RPL25]" answer_label="label 1"
sequence_string="DSVEFIFQAKRNSNPEN [RPN10]" answer_label="label 1"
sequence_string="VWFSHPRRYGKGSRQCR [RPS29A]" answer_label="label 1"
sequence_string="NVNNRFDNFLTEEELQA [BRN1]" answer_label="label 1"
sequence_string="RLNPYAKVFAAEKLGSK [RPL4A]" answer_label="label 1"
sequence_string="VDSRATAGNWVASQTVK [PRE2]" answer_label="label 1"
sequence_string="NKIMTNQINSFWSLHSS [NUT1]" answer_label="label 0"
sequence_string="LPLLILENSSRSPRVVT [NUT1]" answer_label="label 0"
sequence_string="PGEYITTIKAIFDGNYG [YMR129W/POM152]" answer_label="label 1"
sequence_string="QNPKLFQTIFSKQDLIH [SIN4]" answer_label="label 1"
sequence_string="NKFHKSIREDILECDLL [SIR2]" answer_label="label 1"
sequence_string="RILNFFDKNTKTTPNTA [YMR153W/NUP53]" answer_label="label 1"
sequence_string="VVVIDGKGHLVGRLASV [RPL16A]" answer_label="label 0"
sequence_string="SKTENVRRLEAQRNALN [RPT6]" answer_label="label 1"
sequence_string="SVVSQIEKGSTFGINLI [FAS1]" answer_label="label 1"
sequence_string="QPQETEEHHEEEPSRVD [RPT4]" answer_label="label 1"
sequence_string="DDGDDEDLLECLDRCKE [MTR3]" answer_label="label 1"

====

Assay: protein stability index of a GFP-peptide fusion (yeast GPS) (PSI 1-4); higher = more stable; sorted into four equal gates, so the index is relative within each strain
Conditions: san1∆
assay-readout: protein stability index

sequence_string="SGLNRAISTGNWSLKRF [RET1]" reported_measurement=2.67
sequence_string="NKQYHQANSNLTLLERK [NUT1]" reported_measurement=2.59
sequence_string="NIVQVFKKAAPSPISHV [RPB2]" reported_measurement=2.16
sequence_string="SKCLNLISDSNINNSSV [SWI3]" reported_measurement=1.6
sequence_string="AQFVSNKQYHQANSNLT [NUT1]" reported_measurement=3
sequence_string="GWYHSGPKLRASDLKIN [RPN8]" reported_measurement=1.59
sequence_string="QVNQLQRILEVLGTPDQ [SSN3]" reported_measurement=1.34
sequence_string="ITSGGFLLKAYINVSRG [SRB5]" reported_measurement=2.32
sequence_string="TNVYSKDLVIVSNLMGR [RPB3]" reported_measurement=2.96

====

Assay: protein stability index of a GFP-peptide fusion (yeast GPS) (PSI 1-4); higher = more stable; sorted into four equal gates, so the index is relative within each strain
Details: doa10∆
assay-readout: protein stability index

sequence_string="SVANTPSEIPDAHKAEQ [SWI3]" assay_readout="protein stability index" reported_measurement=3.04
sequence_string="AFFREKGLVSQQLDSFN [RPB2]" assay_readout="protein stability index" reported_measurement=3.11
sequence_string="SMKDRAQHAVILDQEKY [RPS25A]" assay_readout="protein stability index" reported_measurement=1.55
sequence_string="RNLDSATLKEIKSIIEQ [SMC3]" assay_readout="protein stability index" reported_measurement=3.25
sequence_string="TTTATPHANPITHAHSL [PGD1]" assay_readout="protein stability index" reported_measurement=2.84
sequence_string="RIKEMYWKLWIDEPFNL [FAS1]" assay_readout="protein stability index" reported_measurement=3.39
sequence_string="RYRLLSDVSDFEGWGHE [RPN1]" assay_readout="protein stability index" reported_measurement=2.63
sequence_string="TSKPVFSFGAATPSAKE [YLR335W/NUP2]" assay_readout="protein stability index" reported_measurement=2.95
sequence_string="VENYETSSAFFYQQVHK [SIR4]" assay_readout="protein stability index" reported_measurement=2.75
sequence_string="SKKVTSGVPRLKEILNV [RPO21]" assay_readout="protein stability index" reported_measurement=1.81

====

protein stability index listing for selected sequences.
Experiment: protein stability index of a GFP-peptide fusion (yeast GPS) (PSI 1-4); higher = more stable; sorted into four equal gates, so the index is relative within each strain
Details: ubr1∆
assay-readout: protein stability index

sequence_string="NFNLKPTKTLTTKERKK [PRP8]" reported_measurement=2.12
sequence_string="QETCDKLRARLVEYGFD [SMC2]" reported_measurement=1.57
sequence_string="RTYSKTYSTPKRPYESS [RPS9A]" reported_measurement=2.53
sequence_string="LKDIVGQTSRTVTPAPN [ITC1]" reported_measurement=2.95
sequence_string="FDDACNQIWNIALNLAS [SSN2]" reported_measurement=2.62
sequence_string="EECGRTIHRSFTICLND [CSN12]" reported_measurement=2.86
sequence_string="ALVAGIERYPSKVTKKH [RPL27B]" reported_measurement=1.96
sequence_string="HLLVQLQKNDVYAFKAK [REC8]" reported_measurement=3.15
sequence_string="NDDIEWMLSICVEWRLP [YJR042W/NUP85]" reported_measurement=1.9
sequence_string="TINISLSFSWAILLIIN [NUT1]" reported_measurement=2.43
sequence_string="TQVNILKENNAILQKSL [YIL149C/MLP2]" reported_measurement=2.65
sequence_string="NSAARNIQHLLYGKRFF [PRE7]" reported_measurement=2.45
sequence_string="ENITNKVTEKVLTQLTA [CSI1]" reported_measurement=2.69
sequence_string="QDREITNWARTTFRNEY [MED8]" reported_measurement=2.51
sequence_string="PELFESLGIAQPKGVIL [RPT6]" reported_measurement=2.54
sequence_string="LQNLQRIIRKKIFIAVV [RRI2]" reported_measurement=1.16
sequence_string="AAIRQPTRYVLIRNVGT [POP1]" reported_measurement=1.31
sequence_string="TNQKDTNDHVDKRTKID [ISW2]" reported_measurement=2.72
sequence_string="LMEFLCVVSTDSTNLSD [ECM29]" reported_measurement=1.72
sequence_string="QIANEFNTQQGIKKHSL [YDL116W/NUP84]" reported_measurement=3.11
sequence_string="GQQTAQPQQSTIGGGLF [YGR119C/NUP57]" reported_measurement=3.28
sequence_string="DTFELIKTFLVDLTSSN [YDL116W/NUP84]" reported_measurement=3.1
sequence_string="ASEVATHSKLFADKKRD [PRP8]" reported_measurement=2.56
sequence_string="LEKLVDHHPEGLSAREA [PRE10]" reported_measurement=2.62
sequence_string="HLRSNILKDLIYRGVLN [SMC1]" reported_measurement=1.74
sequence_string="LSGIIQDIYYLAQTLKL [RRI2]" reported_measurement=1.04
sequence_string="TGGTRTKTPGPGGQAAL [RPS14A]" reported_measurement=3.15
sequence_string="EAVDDVFQAKMMDMLKQ [RPN11]" reported_measurement=2.79
sequence_string="ASSSAKLIEKKSAYANT [SMC2]" reported_measurement=2.79
sequence_string="SSTITGDVVLAAAYSHE [RPL5]" reported_measurement=2.31
sequence_string="KEILDNILPFLWGPHGL [ECM29]" reported_measurement=3.37
sequence_string="DYINELSNSNRFELHGD [REC8]" reported_measurement=3.03
sequence_string="IQSSLMTNLTYFLHLSV [YCS4]" reported_measurement=2.44
sequence_string="QKTVFDELCKLVTCEGS [SRP54]" reported_measurement=1.14
sequence_string="QDIYYLAQTLKLWRKIA [RRI2]" reported_measurement=1.63
sequence_string="ATPQDAQFYLGKRIAYV [RPL33A]" reported_measurement=2.7
sequence_string="DELVKLLLDNGFNMKKI [SRP68]" reported_measurement=3.52
sequence_string="DHKYVCTFSMEPYHFIS [SRB8]" reported_measurement=2.09
sequence_string="MKFQESLKKVDEIKAQR [SMC4]" reported_measurement=3.57
sequence_string="KAIFPNTVDGDLLKLVH [FAS1]" reported_measurement=1.92
sequence_string="KRRIEEEQEKINSAPDF [ISW2]" reported_measurement=3.57
sequence_string="DLETSLSQSSSYLETLT [MED2]" reported_measurement=2.96
sequence_string="AKAKRRHTTGTGRMRYL [RPL37A]" reported_measurement=3.62
sequence_string="SYRNAFTNVLTKYSDVL [YJL039C/NUP192]" reported_measurement=2.13
sequence_string="ISPESVFGTLGELIKVN [SMC3]" reported_measurement=1.86
sequence_string="PEYFESPLQSSKSKQSF [YMR129W/POM152]" reported_measurement=2.96
sequence_string="KELAELKVQKLSRPSLP [RPL35A]" reported_measurement=2.74
sequence_string="GIFIKILNDSLIYHLKD [IRR1]" reported_measurement=1.75
